Just for reference, PubChem BioAssay (NCI) is where these values come from.

- Test system: SNB-78 CNS
- experimentalDetails: NCI tumour cell line growth inhibition, 48 h
Provide the recorded TGI for the entries that follow.

>  <molecule>
Cc1ccc(C(=O)c2nnc(C(=O)c3ccc(C)cc3)nn2)cc1

>  <TGI>
> 100 µM

$$$$
>  <molecule>
Cc1nc(N)nc(N)c1-c1ccc(Cl)c(Cl)c1

>  <TGI>
> 100 µM

$$$$
>  <molecule>
O=c1/c(=C/c2ccccc2F)sc2nc3ccccc3n12

>  <TGI>
> 100 µM

$$$$
>  <molecule>
COc1ccc(C2=Nc3ccccc3NC(=O)C2)cc1

>  <TGI>
70 µM

$$$$
>  <molecule>
O=C(CSc1nnc(-c2ccc(N=Cc3ccc(Cl)cc3)cc2)o1)Nc1ccc(Cl)cc1Cl

>  <TGI>
> 100 µM

$$$$

Please supply TGI for each of the following items, keeping them in order.
1. COc1cc(Cn2c3ccccc3c3cc(C)c4c(c32)C=CC(C)(CCC=C(C)C)O4)cc2c1[nH]c1ccccc12 (stereo not drawn)
2. O=C1C(Br)=CC2(C=C1Br)CCNC1=C2C(=O)c2ccccc2C1=O
3. Cc1csc(=S)n1OC(=O)NC1CCCCC1

1: > 100 µM; 2: > 100 µM; 3: > 100 µM

Please supply TGI for each of the following items, keeping them in order.
1. O=[N+]([O-])C1C2C=CC(C2)[C@H]1c1ccco1 (stereo partly drawn)
2. Cn1cnc(CCc2ccccc2)n1
3. C=CCC[CH2][Sn]([c]1ccccc1)([c]1ccccc1)[c]1ccccc1
4. CC1=C(C)C(=O)c2c(cc3ccccn23)C1=O

["> 100 µM", "> 100 µM", "4.83 µM", "77.5 µM"]

====

- Test system: NCI-H23 lung
- experimentalDetails: NCI tumour cell line growth inhibition, 48 h
testReadout: TGI (µM)
One number for each entry, in µM.

>  <molecularString>
COc1ccc2sc3c(NCCCN(C)C)nc4ccccc4c3c(=O)c2c1

>  <subjectOfTest>
NCI-H23 lung

>  <unitTag>
µM

>  <TGI>
3.06

$$$$
>  <molecularString>
COc1ccc2nc(-c3ccc(-c4noc(-c5cc(OC)c(OC)c(OC)c5)n4)cc3)[nH]c2c1

>  <subjectOfTest>
NCI-H23 lung

>  <unitTag>
µM

>  <TGI>
20

$$$$

Shift focus to the following entry.
The molecule identified as `CC[C@H]1C=CCC[C@@]2(C[C@@H]3CC[C@@H]4[C@H](C(=O)OCCCCCCCCCCCCCCCC(=O)O)[C@]5(CCC[C@@H](C)O5)NC(=[N+]34)N2)O1` registered its TGI at 4.83

====

Provide the recorded TGI for the entries that follow.
- Tested on: PC-3 prostate
- experimentalDetails: NCI tumour cell line growth inhibition, 48 h

Consider the reported TGI for these compounds:
>  <compound>
CCN(CC)CC(C)Nc1ccc([N+](=O)[O-])c2sc3ccccc3c(=O)c12 (centres undefined)

>  <TGI>
> 100 µM

$$$$
>  <compound>
COc1ccc2c(C)cc(N/N=C(\C)C=O)nc2c1

>  <TGI>
24.2 µM

$$$$
>  <compound>
Cn1c(=O)c2c(nc(-n3nc(-c4ccc(Cl)cc4)cc3N)n2C)n(C)c1=O

>  <TGI>
> 100 µM

$$$$

Please supply TGI for each of the following items, keeping them in order.
1. Nc1ncnc2ccc(Sc3ccc4ncnc(N)c4c3)cc12
2. NC(=O)NNc1nc2ccccc2c(=O)n1NC(=O)C(=O)Nc1ccc(Cl)cc1Cl

["> 100 µM", "> 100 µM"]

====

- Test system: EKVX NSCLC
- experimentalDetails: NCI tumour cell line growth inhibition, 48 h
Provide the recorded TGI for the entries that follow.

Consider the reported TGI for these compounds:
>  <compound>
O=C(/C=C/c1ccccc1)c1cc(Br)ccc1O

>  <TGI>
27.6 µM

$$$$
>  <compound>
O=S(=O)(O)c1ccc2cccc(N=Nc3c(O)ccc4ccccc34)c2c1

>  <TGI>
> 100 µM

$$$$

Please supply TGI for each of the following items, keeping them in order.
1. O=C(NCCCCCCNC(=O)n1cc(F)c(=O)[nH]c1=O)NCCCOCCOCCOCCOCCOCCOCCOCCOCCOCCOCCOCCOCCOCCOCCOCCOCCOCCOCCOCCOCCOCCCNC(=O)C(O)C(O)C(O)C(O)CO (stereo not given)
2. CC1C=C(OC(=O)c2ccccc2)C(=O)C(n2cc(F)c(=O)[nH]c2=O)O1 (stereo not given)
3. CCSCCC(N)C(=O)O (stereo not given)
4. CC(=O)N1C(Nc2ccccn2)CCN1c1ccccc1 (stereo not given)
5. COc1cc2c(c(OC)c1)C1c3ccccc3NC(=O)N1CC2 (stereo not given)
6. COc1ccc(-c2n/c(=C\c3c(O)[nH]c4ccc(OC)cc34)cc3c2=Nc2ccccc2-3)cc1

1. > 100 µM
2. > 100 µM
3. > 100 µM
4. > 10 µM
5. > 100 µM
6. 72.9 µM

Please supply TGI for each of the following items, keeping them in order.
1. Cc1ccc(NC(=O)C(=O)C(C#N)c2ccccc2C)cc1C (stereo not given)
2. COC(=O)C1=CC2CCCC1(O)C(C(C)=O)C2 (stereo not given)

["> 100 µM", "> 86.6 µM"]

====

Provide the recorded TGI for the entries that follow.
- Tested on: M14 melanoma
- experimentalDetails: NCI tumour cell line growth inhibition, 48 h
Numbers only, in µM.

Consider the reported TGI for these compounds:
>  <compound>
COc1ccc(-c2nn3c(-c4cc(F)c(Cl)cc4Cl)nnc3s2)cc1

>  <TGI [µM]>
95.9

$$$$
>  <compound>
CC#CC#C/C=C1/O[C@]2(CCC(OC(C)=O)CO2)[C@@H]2O[C@H]12 (stereo not given in full)

>  <TGI [µM]>
67.6

$$$$
>  <compound>
O=C1c2cccnc2C(=O)c2nc3cc(N4CCN(C5CC5)CC4)ccc3nc21

>  <TGI [µM]>
1.18

$$$$

Shift focus to the following entry.
TGI of `COc1cc(C(=O)C/C(CCCC(=O)Nc2ccccc2[N+](=O)[O-])=N/NC(=O)c2cc3ccccc3cc2O)ccc1O` , assay on M14 melanoma, is 50.2

====

- System: OVCAR-5 ovarian
- experimentalDetails: NCI tumour cell line growth inhibition, 48 h
testReadout: TGI

>  <molecule>
C/C(=N\NS(=O)(=O)c1ccccc1)c1ccc(Cl)c(Cl)c1

>  <subjectOfTest>
OVCAR-5 ovarian

>  <TGI>
> 100 µM

$$$$
>  <molecule>
CCCCCCCCCCCC(=O)OCC1OC(n2cc(F)c(=O)[nH]c2=O)C(NC(=O)OCc2ccccc2)C(OC(=O)CCCCCCCCCCC)C1O (stereo not given)

>  <subjectOfTest>
OVCAR-5 ovarian

>  <TGI>
> 100 µM

$$$$
>  <molecule>
CC(=O)N1C(Nc2ccccn2)CCN1c1ccccc1 (stereo not given)

>  <subjectOfTest>
OVCAR-5 ovarian

>  <TGI>
> 10 µM

$$$$
>  <molecule>
COc1ccc2sc3c(NCCCN(C)C)nc4ccccc4c3c(=O)c2c1

>  <subjectOfTest>
OVCAR-5 ovarian

>  <TGI>
3.23 µM

$$$$

Shift focus to the following entry.
The molecule identified as CC1(C)CC(=O)c2c(C(F)(F)F)nn(-c3ccc(C(N)=O)c(NC4CCC(OC(=O)CN)CC4)c3)c2C1 (stereo not given) registered its TGI at > 100 µM

====

Provide the recorded TGI for the entries that follow.
- Tested on: K-562 leukemia
- experimentalDetails: NCI tumour cell line growth inhibition, 48 h

>  <compound>
Cc1nc(N)nc(N)c1-c1ccc(Cl)c(Cl)c1

>  <subjectOfTest>
K-562 leukemia

>  <testReadout>
TGI

>  <reported>
> 100 µM

$$$$

Please supply TGI for each of the following items, keeping them in order.
1. CN(C)CCCNC(=O)CCNC(=O)c1cc(NC(=O)c2cc(NC(=O)c3cc(NC(=O)c4nc(NC(=O)CCCNC(=O)c5cc(NC(=O)c6cc(NC(=O)c7cc(NC(=O)c8nccn8C)cn7C)cn6C)cn5C)cn4C)cn3C)cn2C)cn1C
2. CC1(C)C(=NNC(=O)C[N+](C)(C)C)C(C)(C)C1=NNC(=O)C[N+](C)(C)C
3. CCCc1[nH]c(SCCCCCCCCSc2nc(-c3ccc(F)cc3)c(CCC)[nH]2)nc1-c1ccc(F)cc1
4. CCN(CC)CC(C)Nc1ccc([N+](=O)[O-])c2sc3ccccc3c(=O)c12 (configuration not stated)
5. CN(C)CCCNC(CC#N)CCC#N (configuration not stated)
6. CCCCCCCCCCCC(=O)OCC1OC(n2cc(F)c(=O)[nH]c2=O)C(NC(=O)OCc2ccccc2)C(OC(=O)CCCCCCCCCCC)C1O (configuration not stated)

> 100 µM
> 100 µM
> 100 µM
3.74 µM
> 10 µM
> 100 µM

Please supply TGI for each of the following items, keeping them in order.
1. COc1ccc(-c2nn3c(-c4cc(F)c(Cl)cc4Cl)nnc3s2)cc1
2. O=[N+]([O-])C(C(Cl)=C(Cl)Cl)=C(N(Cc1ccccc1)Cc1ccccc1)N(Cc1ccccc1)Cc1ccccc1
3. CCC1NC(=O)C1NC(=O)OC (configuration not stated)
4. CCOC(=O)CSc1nc(N)c2c(-c3ccc(OC)c(OC)c3)c3c(nc2n1)CCCC3
5. O=C1CC(c2ccc(O)cc2)C2(O1)C(=O)OC(C(O)CO)C2O (configuration not stated)
6. COc1ccc2c(c1)cn1c3ccc(O)cc3nc(N)c21
7. CCOC(=O)N(Cc1cccs1)c1cc(OC)c(OC)c(OC)c1
8. COc1ccc(OC)c(/C=C2\SC(=S)NC2=O)c1

1. 44.7 µM
2. > 100 µM
3. > 100 µM
4. > 100 µM
5. > 100 µM
6. 2.46 µM
7. 65.7 µM
8. > 100 µM
